Target: T1, human PVRIG expressed on cells (human, UniProt Q6DKI7 41-326)
T1 construct: whole, on cells; also called Human PVRIG FACS; cells overexpressing human PVRIG
T1 sequence (looked up): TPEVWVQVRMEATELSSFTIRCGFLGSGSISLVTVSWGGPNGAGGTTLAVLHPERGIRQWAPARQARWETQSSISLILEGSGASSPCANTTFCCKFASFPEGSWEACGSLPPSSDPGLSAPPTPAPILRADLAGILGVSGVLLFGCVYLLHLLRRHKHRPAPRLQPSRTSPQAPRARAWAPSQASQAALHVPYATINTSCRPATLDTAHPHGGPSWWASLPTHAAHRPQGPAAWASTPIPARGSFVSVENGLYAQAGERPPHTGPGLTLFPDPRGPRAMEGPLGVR
Test: FACS, HEK293 cells overexpressing target
// pEC50 lookup, one value per entry
In simple prose, pEC50 is minus the logarithm base ten of a concentration in moles per litre.

Answered examples (3):
- binder: "humanized anti-PVRIG antibody 38H9 (antibody, human IgG4 S228P, F234A L235A, V domains shown) VH: EVQLVESGGGVVQPGGSLRLSCAASPSTYGPSDMAWFRQAPGKGLEGVATISAAGRLTYYTDSVRGRFTISRDNSKNTMYLQMNSLRAEDTAVYYCAADFAGGSSLFADYKYWGQGTMVTVSS"
  readoutNumber: 10.17
- binder: "humanized anti-PVRIG antibody 38H4 (antibody, human IgG4 S228P, F234A L235A, V domains shown) VH: EVQLVESGGGVVQPGGSLRLSCAASPFTYGPSDMAWFRQAPGKGLEGVATISAAGRLTYYTDSVRGRFTISRDNSKNTLYLQMNSLRAEDTAVYYCAADFAGGSSLFADYKYWGQGTMVTVSS"
  readoutNumber: 10.21
- binder: "humanized anti-PVRIG antibody 30H2 (antibody, human IgG4 S228P, F234A L235A, V domains shown) VH: EVQLVESGGGLVQPGGSLRLSCAASGFTFSGDCMGWFRQAPGKGLDEGVATIDNAGRIKYADSVKGRFTISRDNAKNSLYLQMNSLRAEDTAVYYCAAGWTFGGQCSPADWGQGTQVTVSS"
  readoutNumber: 11.52

Please report pEC50 for the following binder: humanized anti-PVRIG antibody 30H3 (antibody, human IgG4 S228P, F234A L235A, V domains shown) VH: EVQLVESGGGLVQPGGSLRLSCAASGYSYSGDCMGWFRQAPGKGLDEGVATIDNAGRIKYADSVKGRFTISRDNAKNSLYLQMNSLRAEDTAVYYCAAGWTFGGQCSPADWGQGTQVTVSS
11.40

Please report pEC50 for the following binder: humanized anti-PVRIG antibody 38H7 (antibody, human IgG4 S228P, F234A L235A, V domains shown) VH: EVQLVESGGGVVQPGGSLRLSCAASPSTYGPSDMAWFRQAPGKQREGVATISAAGRLTYYTDSVRGRFTISRDNSKNTMYLQMNSLRAEDTAVYYCAADFAGGSSLFADYKYWGQGTMVTVSS
10.40

Please report pEC50 for the following binder: humanized anti-PVRIG antibody 151H7 (antibody, human IgG4 S228P, F234A L235A, V domains shown) VH: HVQLVESGGGLVQPGGSLRLSCVASASGFTYRPYCMAWFRQAPGKEREAVAGIDIFGGTTYADSVKGRFTASRDNAGFSLYLQMNSLRAEDTAVYYCAAGDSPDGRCPPLGQGLNYWGQGTMVTVSS
11.70

Please report pEC50 for the following binder: humanized anti-PVRIG antibody 20H1 (antibody, human IgG4 S228P, F234A L235A, V domains shown) VH: EVQLVESGGGLVQPGGSLRLSCAASGFTFSTDCMGWFRQAPGKGLEGVAHIDSDGIPRYVDSVKGRFTISRDNAKNSLYLQMNSLRAEDTAVYYCVVGFKFDEDYCAPNDWGQGTMVTVSS
10.72

Please report pEC50 for the following binder: humanized anti-PVRIG antibody 30H1 (antibody, human IgG4 S228P, F234A L235A, V domains shown) VH: EVQLVESGGGLVQPGGSLRLSCAASGFTFSGDCMGWFRQAPGKGLEGVATIDNAGRIKYADSVKGRFTISRDNAKNSLYLQMNSLRAEDTAVYYCAAGWTFGGQCSPADWGQGTQVTVSS
10.62
